molecules and their reported melting point

# annotated cases, reported melting point shown
[[record]]
molecule = "CC1(C)CCc2c(-c3ccco3)nc3sc4c(NCCN5CCOCC5)ncnc4c3c2C1"
observedvalue = "123 to 125 °C"

[[record]]
molecule = "COC1CCN(C2CCN(c3ccc(N)cc3C#N)CC2)CC1"
observedvalue = "125 to 130 °C"


Lab note: measured melting point of COc1c(C)cc(C(=O)CCC(=O)O)cc1C was 108 °C

The recorded melting point for entry CCOC(=O)C1(CBr)C=CC=CC1S(=O)(=O)NC(C)(C)C (stereo not given) equals 74 to 75 °C

The recorded melting point for entry CC#CC(C)(C)NC(=O)C(COC)Oc1cc(Cl)cc(Cl)c1 (stereo not given) equals 107 to 110 °C

----------
# key: entry, value: melting point

Some entries whose results are on file:
[[record]]
compound = "CCOC(=O)C1=C(C)NC(C)=C(C(=O)OC)C1c1cccc2c(=O)c(C)c(-c3ccccc3)oc12 (centres undefined)"
property = "melting point"
observedvalue = "226 to 228 °C"

[[record]]
compound = "CC1CC(=O)NN=C1c1ccc(NC(=O)CCNCC(O)C(Cc2ccccc2)Oc2ccc(CCOCC3CC3)cc2)cc1 (centres undefined)"
property = "melting point"
observedvalue = "125 to 128 °C"

[[record]]
compound = "O=C1c2c(-c3ccccc3)cc(CNC3CC3)nc2OCCN1Cc1cc(C(F)(F)F)cc(C(F)(F)F)c1"
property = "melting point"
observedvalue = "129 to 131 °C"


From here, focus on the item given below.
melting point reading for O=C1Cc2c([nH]c3ccccc23)-c2ncccc2N1 : > 330 °C

----------
property: melting point

Use these answered entries as a reference point.
[[record]]
compound = "COc1ccc(-c2[nH]c3cn[nH]c(=O)c3c2Cl)cc1OC(C)C"
property = "melting point"
observedvalue = "291 to 299 °C"

[[record]]
compound = "CCOCN1C(C)=C(C(C)=O)C(c2cccc([N+](=O)[O-])c2)C(C(=O)OCC)=C1C (stereo not given)"
property = "melting point"
observedvalue = "110 to 111 °C"

[[record]]
compound = "CCn1cc(C(=O)O)c(=O)c2cc(F)c(N3CCNC(c4cc5ccccc5o4)C3)cc21 (stereo not given)"
property = "melting point"
observedvalue = "226 to 228 °C"

[[record]]
compound = "Fc1cc(F)c(-c2c(Cl)ncn2-c2ccc(Cl)cc2)c(F)c1"
property = "melting point"
observedvalue = "102 to 104 °C"

[[record]]
compound = "COc1ccc2c(c1)CCc1c(Cl)cccc1S2"
property = "melting point"
observedvalue = "73 to 74 °C"


Measured melting point of COc1cc(CCC2(C)OCc3c2cnc(C)c3O)cc(OC)c1OC (stereo not given) : 219 °C

Value of measured melting point for the entry CCn1ncc2cc3c(nc21)C(Cl)c1ccccc1CC3 (stereo not given) : 107 to 110 °C

The measured melting point associated with NS(=O)(=O)c1ccc(-n2nc(NC(=O)Nc3cccc(C(F)(F)F)c3)cc2-c2ccccc2)cc1 reads 195 to 197 °C

Sure, the documented melting point for COc1ccc(CCCC(CCc2ccc(OC)cc2)C(=O)O)cc1 (stereo not given) is 91 to 94 °C

Field melting point (entry CCN(CC)CCN1C(=O)c2ccc(NC(C)=O)cc2Oc2cc(C(F)(F)F)ccc21 ) reads 75 to 85 °C

----------
Entries and their melting point values follow.

[[record]]
compound = "COc1ccc2[nH]c(S(=O)Cc3cc(N)c(Br)cn3)nc2c1 (stereo not drawn)"
property = "melting point"
observedvalue = "130 to 132 °C"

[[record]]
compound = "COc1cc2c3ccc(OC)c(OC)c3n(C(=O)c3ccc(C(C)(C)C)cc3)c2cc1OC"
property = "melting point"
observedvalue = "129 to 131 °C"


The compound identified as CN1CCN(Cc2ccc(Cl)cc2Cl)C(C2=NCCN2)C1 (stereo not drawn) registered its melting point at 167 to 169 °C

get_value(item= Cc1cccc(C(O)COc2ccc(CC3SC(=O)NC3=O)cc2)n1 (stereo not drawn) , readout=melting point) returns 154 to 155 °C

----------
property: melting point

Some solved entries appear below for comparison.
[[record]]
smilesstring = "COc1ccc2nc(NN)nc(-c3ccccc3)c2c1"
observedvalue = "151 to 152 °C"

[[record]]
smilesstring = "COCc1cccc(-c2c(Cl)ncn2-c2ccc(S(C)(=O)=O)cc2)c1"
observedvalue = "178 °C"


The molecule listed as O=S(=O)(Br)c1cccs1 has a reported melting point of 49 to 51 °C

----------
Here the recorded melting point is given for each entry.

Answered cases to consult:
[[record]]
smilesstring = "COc1ccc(-n2c(C)ccc2-c2ccc(S(N)(=O)=O)cc2)cc1"
property = "melting point"
observedvalue = "196 to 197 °C"

[[record]]
smilesstring = "CN1CCN(c2cnc(-c3cc(Cl)cc(Cl)c3Cl)c(N)n2)CC1"
property = "melting point"
observedvalue = "185 °C"


Quick note, melting point for CCCc1nc2c(N)nc3cc(-c4cccc(S(C)(=O)=O)c4)ccc3c2s1 landed at 242 to 245 °C

----------
property: melting point

[[record]]
molecule = "C#CC(C)(C)N1CCN(C(=O)OC(C)(C)C)CC1"
property = "melting point"
observedvalue = "106 to 107 °C"

[[record]]
molecule = "O=C(Nc1cn2nc(Sc3nnc4ccccn34)ccc2n1)C1CC1"
property = "melting point"
observedvalue = "193 to 195 °C"

[[record]]
molecule = "Cc1ccc2c(c1)Nc1ccccc1N=C2N1CCN[C@@H](CCc2ccccc2)C1"
property = "melting point"
observedvalue = "64 to 80 °C"


melting point reading for COCC(F)(F)c1nc2nc(C)c(F)cc2cc1C(=O)C1C(=O)C2CCC(C2)C1=O (centres undefined) : 177 to 180 °C

In plain terms, O=c1cc(NCCN2CCN(c3ccccc3F)CC2)cn[nH]1 has a documented melting point of 103 to 105 °C

The measured melting point associated with c1ccc(Sc2ccc(-c3ccc(Sc4ccccc4)cc3)cc2)cc1 reads 116 to 117 °C

Record CCOC(=O)C1(C(=O)OCC)Oc2ccc(CN/C=C3\C(=O)NC(=O)c4ccc(Br)cc43)cc2O1 , field melting point: 222 to 223 °C

Measured melting point of CCCC(c1ccc(C(=O)OC)cc1OCc1ccc(Cl)cc1Cl)n1ccnc1 (centres undefined) : 104 °C

Short answer for NC(=O)C1=CCNCC1 : melting point was 104 to 106 °C

----------
Reported melting point values are given for each entry in this list.

Guide cases for melting point, answers given:
[[record]]
compound = "Cn1c(=O)[n+]([O-])c(-c2ccccc2)c2cc(Cl)ccc21"
observedvalue = "254 °C"

[[record]]
compound = "CNCC(=O)N1N=C(c2ccc(N)cc2)c2cc3c(cc2CC1C)OCO3 (stereo not drawn)"
observedvalue = "198 to 200 °C"


In the following, a different compound is considered.
In plain terms, Cc1nnnn1C(C=O)=C(c1ccc(F)cc1)c1ccc(F)cc1 has a documented melting point of 151 to 152 °C

----------
Measured melting point, listed per entry for reference.

[[record]]
smilesstring = "CN(C)CC=CC(=O)Nc1cc2c(Nc3cc(Cl)c(Cl)cc3F)ncnc2cc1OCCOCCOCCOCCF"
observedvalue = "119 to 120 °C"

[[record]]
smilesstring = "CC(C)(C)c1cc(C=C2SC(=S)N(C3CC3)C2=O)cc(C(C)(C)C)c1O"
observedvalue = "158 to 168 °C"


Moving on to another molecule below.
Form field melting point, entry O=C(NCO)N1CC(Oc2cccc(C(F)(F)F)c2)C1 : 113 to 115 °C

----------
Let's look at some compounds and their measured melting point.

Use the examples below as a reference point.
[[record]]
compound = "CCOC(=O)C(c1ccc(CN2CCOCC2)cn1)c1cc(C#N)ccc1[N+](=O)[O-] (stereo unspecified)"
property = "melting point"
observedvalue = "83 to 84 °C"

[[record]]
compound = "CC(C(=O)O)c1ccc2cc(OCc3ccc4ccccc4n3)ccc2c1 (stereo unspecified)"
property = "melting point"
observedvalue = "186 to 187 °C"

[[record]]
compound = "COC(=O)CCCc1ccc(CNC(=O)C2Cc3ccccc3N2S(=O)(=O)c2ccc(-c3cccc(C(F)(F)F)c3)cc2)cc1 (stereo unspecified)"
property = "melting point"
observedvalue = "55 °C"

[[record]]
compound = "Cc1sc(CCc2ccc(C=O)cc2)nc1-c1ccccc1"
property = "melting point"
observedvalue = "66 to 67 °C"

[[record]]
compound = "CCNC(=S)Nc1ccc2ncc(Nc3cc(OC)c(OC)c(OC)c3)cc2n1"
property = "melting point"
observedvalue = "237 to 238 °C"


Now for a further compound.
Summary for this compound, COc1ccc2cc(C(=O)c3ccc(C)c(C)c3)oc2c1 : melting point is 95 to 97 °C

----------
# melting point per entry

Example results:
[[record]]
molecule = "CCOCc1nc2c(N)nc3cc(CCCN4CCOCC4)ccc3c2n1CC(C)(C)O"
property = "melting point"
observedvalue = "132 to 133 °C"

[[record]]
molecule = "CN1C(=O)c2c(Cl)cc(Cl)c(Cl)c2C1=O"
property = "melting point"
observedvalue = "166 to 168 °C"

[[record]]
molecule = "CCCc1c2nc(C(=O)OC)cc(Br)c2cc2c(=O)cc(C(=O)OC)oc12"
property = "melting point"
observedvalue = "179 to 180 °C"


// O=C(O)c1cccc2nc(C(F)(F)C(F)(F)C(F)(F)F)n(Cc3ccccc3Cl)c12 : melting point value = 213 to 214 °C

melting point recorded for this molecule, O=C1C(c2ccc(O)cc2)=C(c2ccccc2)c2ccc(O)cc21 , is 100 to 110 °C

Please fill in: melting point reported for CCCc1nsc(Oc2cccc(NC(=O)OC(C)C)c2)n1 = 64 °C

Notebook: CCCc1c(O)c(Cl)cc(C(C)=O)c1O , melting point read as 96 °C

// melting point lookup, molecule = Oc1cc2c3ccc(O)c(O)c3n(Cc3ccccc3)c2cc1O , result: 241 to 246 °C

The measured melting point associated with COc1ccc2oc(Cc3cccnc3)c(CC#N)c2c1 reads 123 °C

// melting point lookup, molecule = COc1cc(NC(=S)Nc2ccccc2)ccc1NNC=O , result: 183 to 184 °C

Where do the numbers come from? From a melting point compilation (Tetko et al.; mined from patent text by program, amines drawn as free bases though some values may be those of a salt).
